Data origin: patent US20140348836A1

Target: T1, CD40hfc (R&Dsystems, USA) (UniProt P25942 21-193)
T1 construct: Bought reagent; also called immobilized CD40 receptor; target; not shown: Fc part ('hfc') of the bought fusion
T1 sequence (P25942 21-193 limits assumed): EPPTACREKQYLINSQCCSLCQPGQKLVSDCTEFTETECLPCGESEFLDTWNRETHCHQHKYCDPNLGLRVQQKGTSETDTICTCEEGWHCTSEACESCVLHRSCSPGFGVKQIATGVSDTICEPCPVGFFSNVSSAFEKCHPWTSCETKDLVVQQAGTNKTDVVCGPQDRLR
Assay: SPR (Biacore 3000), CD40hfc amine-coupled on chip, antibody as analyte, 37 C, acetate buffer pH 5.4
observed_property: kon (M⁻¹ s⁻¹)
Respond with the bare value in M⁻¹ s⁻¹.

Field: example entries. Status: answers known.
| binder | unit_descriptor | kon |
| --- | --- | --- |
| Antibody B44 (antibody, V domains shown, Parent agonistic anti-CD40 antibody from the n-CoDeR library; Run alongside the IgG clones as 'B44 antibody' and detected with anti-human Ig on RAMOS cells; also called B44 antibody; original anti-CD40 antibody) VH: EVQLLESGGGLVQPGGSLRLSCAASGFTFSTYGMHWVRQAPGKGLEWLSYISGGSSYIFYADSVRGRFTISRDNSENALYLQMNSLRAEDTAVYYCARILRGGSGMDLWGQGTLVTVSS VL: QSVLTQPPSASGTPGQRVTISCTGSSSNIGAGYDVYWYQQLPGTAPKLLIYGNINRPSGVPDRFSGSKSGTSASLAISGLRSEDEADYYCAAWDDSLSGLVFGGGTKLTVLG | M⁻¹ s⁻¹ | 6e+06 |
| Antibody clone B9 (antibody, human IgG1, lambda, V domains shown) VH: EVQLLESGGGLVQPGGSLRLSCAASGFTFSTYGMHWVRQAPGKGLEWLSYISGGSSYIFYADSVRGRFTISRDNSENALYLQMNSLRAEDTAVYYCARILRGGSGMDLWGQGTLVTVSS VL: QSVLTQPPSASGTPGQRVTISCTGSSSNIGAGYNVYWYQQLPGTAPKLLIYGNINRPSGVPDRFSGSKSGTSASLAISGLRSEDEADYYCAAWDGGLLGLVFGGGTKLTVLG | M⁻¹ s⁻¹ | 9.7e+06 |
| Antibody clone A4 (antibody, human IgG1, lambda, V domains shown, Tested as purified antibody; full chains are assembled here from VH/VL plus these; also called A4 ANTI-CD40 ANTIBODY) VH: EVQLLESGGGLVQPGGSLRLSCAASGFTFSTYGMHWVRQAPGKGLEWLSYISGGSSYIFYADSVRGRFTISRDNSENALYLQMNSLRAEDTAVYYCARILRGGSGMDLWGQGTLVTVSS VL: QSVLTQPPSASGTPGQRVTISCTGSTSNIGAGYKVYWYQQLPGTAPKLLIYGNINRPSGVPDRFSGSKSGTSASLAISGLRSEDEADYYCAAWDDSLSGLVFGGGTKLTVLG | M⁻¹ s⁻¹ | 1.1e+07 |

# ---- query binder ----
[ask] Which kon is listed for Antibody clone A5 (antibody, human IgG1, lambda, V domains shown) VH: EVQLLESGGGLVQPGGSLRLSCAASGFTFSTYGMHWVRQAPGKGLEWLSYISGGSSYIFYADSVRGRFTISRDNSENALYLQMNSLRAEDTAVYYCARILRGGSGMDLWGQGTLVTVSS VL: QSVLTQPPSASGTPGQRVTISCTGSSSNIGAGYHVYWYQQLPGTAPKLLIYGSINRPSGVPDRFSGSKSGTSGSLAISGLRSEDEADYYCAAWDSSSSGLVFGGGTKLTVLG ?
[reply] 1.1e+07
